Target: T1, RANKL expressed on the surface of 293 cells (UniProt O14788 1-317, limits assumed)
T1 construct: whole, on cells; also called RANKL-transfected 293 cells; cells expressing RANKL
T1 sequence (looked up): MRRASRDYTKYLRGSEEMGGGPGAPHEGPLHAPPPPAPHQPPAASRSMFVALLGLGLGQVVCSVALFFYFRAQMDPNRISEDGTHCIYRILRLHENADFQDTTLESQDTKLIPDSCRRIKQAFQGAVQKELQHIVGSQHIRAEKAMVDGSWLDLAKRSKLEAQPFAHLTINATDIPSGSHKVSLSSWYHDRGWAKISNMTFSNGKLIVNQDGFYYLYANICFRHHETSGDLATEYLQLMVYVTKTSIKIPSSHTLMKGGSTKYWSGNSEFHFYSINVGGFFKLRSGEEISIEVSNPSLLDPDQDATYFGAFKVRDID
Test: flow cytometry (MFI) on RANKL-transfected 293 cells
MEASUREMENT_TYPE: EC50 (µg/mL)
Please reply with the bare figure in µg/mL and do not write the unit itself.

Sample answers from the record:
{"BINDER": "clone 191 rabbit anti-RANKL antibody (antibody, V domains shown) VH: QSVEESGGRLVTPGTPLTLTCTVSGFSLYTNLINWVRQAPGKGLEWIGYINYGASAYYANWAKGRFTISQTSSTTVDLKMTSLTIEDTATYFCARGYGNDWDRLDLWGQGTLVTVSS VL: IVMTQTPSPVSGAVGGTVTINCQASQSIGSNLAWYQQKPGQPPKLLIYSASILASGAPSRVSGSGYGTEFTLTISGVQCADAATYYCQQGYTTNADNIFGGGTEVVVE", "MEASUREMENT_TYPE": "EC50", "MEAS_VALUE": 0.174}
{"BINDER": "clone 193 rabbit anti-RANKL antibody (antibody, V domains shown) VH: QSVEESGGRLVTPGTPLTLTCTFSGFSLSNNAINWVRQAPGKGLEWIGYTWSGGGTYCASWAKGRFTISKTSSTTVDLKMTSLTTEDTATYFCARAYDSEWDRLDLWGQGTLVTVSS VL: VMTQTPASVSGPVGGTVTIKCQASQSIGSNLGWYQQKPGQPPKLLIFSASNLESGVPSRFKGSGSGTQFTLTISDLECDDAATYYCQQGYTTNNVLNAFAGGTEVVVK", "MEASUREMENT_TYPE": "EC50", "MEAS_VALUE": 0.135}

Pending binder:
stdin: What value of EC50 has been recorded for this entry: clone 91 rabbit anti-RANKL antibody (antibody, V domains shown) VH: QSLEESGGRLVKPDETLTLTCTVSGSSLYNYEINWVRQAPGKGLEWIGYIDVGSGTWYASWAKGRFTISKTSTTVDLKITSPTTEDTATYFCTRKYNPMDLWGPGTLVTVSS VL: DMTQTPASVEVAVGGTVTIKCQASQNIGSNLAWYQQKPGQPPKLLIYSTSTVASGVPSRFKGSGFGTQFTLTISGVQCDDAATYYCQQGYSAGNVNNPFGGGTEVVVK
stdout: 0.0664
